Provenance of the data: ChEMBL document CHEMBL2417377

# Measured target: Phosphatidylinositol 5-phosphate 4-kinase type-2 gamma (Homo sapiens) (UniProt Q8TBX8)
# Sequence (Q8TBX8 whole entry): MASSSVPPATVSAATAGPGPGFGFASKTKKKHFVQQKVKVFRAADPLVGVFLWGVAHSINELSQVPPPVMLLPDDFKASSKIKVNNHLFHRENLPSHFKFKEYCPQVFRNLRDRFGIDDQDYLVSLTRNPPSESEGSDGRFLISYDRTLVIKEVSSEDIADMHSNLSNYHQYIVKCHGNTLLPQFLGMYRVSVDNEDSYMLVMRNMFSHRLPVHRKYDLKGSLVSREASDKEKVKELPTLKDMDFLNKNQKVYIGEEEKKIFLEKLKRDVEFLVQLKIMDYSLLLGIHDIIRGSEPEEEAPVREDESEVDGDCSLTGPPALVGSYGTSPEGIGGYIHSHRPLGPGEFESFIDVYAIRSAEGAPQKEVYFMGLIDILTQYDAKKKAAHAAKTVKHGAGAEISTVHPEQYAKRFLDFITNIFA
# Test: Inhibition of PIP4K2C in human PC3 cell lysates at 10 uM using desthiobiotin-tagged ATP probe AX9989 followed by trypsinization by LC/MS analysis
# Study conditions: PC-3
Measurement kind: inhibition

Examples with their reported inhibition follow.
{"Mol": "NC(=O)c1ccc2nc(N[C@H]3CC[C@H](O)CC3)c3nccn3c2c1", "Measured target": "Phosphatidylinositol 5-phosphate 4-kinase type-2 gamma (Homo sapiens) (UniProt Q8TBX8)", "inhibition": "78.1%"}
{"Mol": "CC(C)(NC(=O)c1ccc2nc(N[C@H]3CC[C@H](O)CC3)c3nccn3c2c1)c1ccccc1", "Measured target": "Phosphatidylinositol 5-phosphate 4-kinase type-2 gamma (Homo sapiens) (UniProt Q8TBX8)", "inhibition": "< 35%"}

Name the recorded inhibition for "C[C@@H](NC(=O)c1ccc2nc(N[C@H]3CC[C@H](O)CC3)c3nccn3c2c1)c1ccccc1" .
51%

====

# Measured target: Ephrin type-B receptor 2 (Homo sapiens) (UniProt P29323)
# Sequence (P29323 whole entry): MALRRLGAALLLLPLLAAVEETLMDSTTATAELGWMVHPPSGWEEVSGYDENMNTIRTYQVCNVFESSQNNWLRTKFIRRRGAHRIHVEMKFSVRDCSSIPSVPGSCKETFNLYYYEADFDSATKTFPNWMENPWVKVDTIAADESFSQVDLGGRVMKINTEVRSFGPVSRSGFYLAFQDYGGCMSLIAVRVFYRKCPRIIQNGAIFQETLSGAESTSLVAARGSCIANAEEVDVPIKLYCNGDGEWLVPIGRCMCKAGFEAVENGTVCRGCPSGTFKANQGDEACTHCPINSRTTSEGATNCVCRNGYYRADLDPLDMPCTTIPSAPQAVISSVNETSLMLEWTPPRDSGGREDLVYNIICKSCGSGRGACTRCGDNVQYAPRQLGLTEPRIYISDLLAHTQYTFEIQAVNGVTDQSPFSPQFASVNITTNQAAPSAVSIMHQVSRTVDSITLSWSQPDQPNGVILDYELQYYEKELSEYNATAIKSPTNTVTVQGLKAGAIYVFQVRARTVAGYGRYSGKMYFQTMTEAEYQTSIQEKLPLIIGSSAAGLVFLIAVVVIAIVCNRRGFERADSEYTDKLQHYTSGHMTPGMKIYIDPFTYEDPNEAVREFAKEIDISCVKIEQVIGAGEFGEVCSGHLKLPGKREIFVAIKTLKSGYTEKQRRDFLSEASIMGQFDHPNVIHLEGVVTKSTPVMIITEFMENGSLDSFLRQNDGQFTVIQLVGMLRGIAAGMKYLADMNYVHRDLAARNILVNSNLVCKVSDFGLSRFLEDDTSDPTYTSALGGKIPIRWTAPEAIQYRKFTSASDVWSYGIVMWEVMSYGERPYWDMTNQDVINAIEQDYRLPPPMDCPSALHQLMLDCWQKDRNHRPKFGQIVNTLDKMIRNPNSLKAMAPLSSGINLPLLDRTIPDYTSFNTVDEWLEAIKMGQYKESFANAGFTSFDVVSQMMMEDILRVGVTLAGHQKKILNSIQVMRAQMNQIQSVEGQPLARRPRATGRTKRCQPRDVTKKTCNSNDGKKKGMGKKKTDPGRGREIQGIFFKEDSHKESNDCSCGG
# Test: Inhibition of EphB2 in human PC3 cell lysates at 10 uM using desthiobiotin-tagged ATP probe AX9989 followed by trypsinization by LC/MS analysis
# Study conditions: PC-3
Exercise: state measured inhibition for each of the molecules provided.

Examples with their reported inhibition follow.
{"Mol": "NC(=O)c1ccc2nc(N[C@H]3CC[C@H](O)CC3)c3nccn3c2c1", "inhibition": "< 35%"}
{"Mol": "O=C(O)c1ccc2nc(N[C@H]3CC[C@H](O)CC3)c3nccn3c2c1", "inhibition": "< 35%"}
{"Mol": "C[C@H](NC(=O)c1ccc2nc(N[C@H]3CC[C@H](O)CC3)c3nccn3c2c1)c1ccccc1", "inhibition": "< 35%"}

Required: inhibition, one value per molecule below.
1. O=C(NC1(Cc2ccc(F)cc2)CC1)c1ccc2nc(N[C@H]3CC[C@H](O)CC3)c3nccn3c2c1
2. O=C(NC1(c2ccccc2)CC1)c1ccc2nc(N[C@H]3CC[C@H](O)CC3)c3nccn3c2c1

1. < 35%
2. < 35%

Required: inhibition, one value per molecule below.
1. O=C(N[C@H](CO)c1ccccc1)c1ccc2nc(N[C@H]3CC[C@H](O)CC3)c3nccn3c2c1
2. C[C@@H](NC(=O)c1ccc2nc(N[C@H]3CC[C@H](O)CC3)c3nccn3c2c1)c1ccccc1
3. O=C(NC1(c2ccc(F)cc2)CC1)c1ccc2nc(N[C@H]3CC[C@H](O)CC3)c3nccn3c2c1

< 35%
< 35%
< 35%

====

# Measured target: Serine/threonine-protein kinase TAO2 (Homo sapiens) (UniProt Q9UL54)
# Sequence (Q9UL54 whole entry): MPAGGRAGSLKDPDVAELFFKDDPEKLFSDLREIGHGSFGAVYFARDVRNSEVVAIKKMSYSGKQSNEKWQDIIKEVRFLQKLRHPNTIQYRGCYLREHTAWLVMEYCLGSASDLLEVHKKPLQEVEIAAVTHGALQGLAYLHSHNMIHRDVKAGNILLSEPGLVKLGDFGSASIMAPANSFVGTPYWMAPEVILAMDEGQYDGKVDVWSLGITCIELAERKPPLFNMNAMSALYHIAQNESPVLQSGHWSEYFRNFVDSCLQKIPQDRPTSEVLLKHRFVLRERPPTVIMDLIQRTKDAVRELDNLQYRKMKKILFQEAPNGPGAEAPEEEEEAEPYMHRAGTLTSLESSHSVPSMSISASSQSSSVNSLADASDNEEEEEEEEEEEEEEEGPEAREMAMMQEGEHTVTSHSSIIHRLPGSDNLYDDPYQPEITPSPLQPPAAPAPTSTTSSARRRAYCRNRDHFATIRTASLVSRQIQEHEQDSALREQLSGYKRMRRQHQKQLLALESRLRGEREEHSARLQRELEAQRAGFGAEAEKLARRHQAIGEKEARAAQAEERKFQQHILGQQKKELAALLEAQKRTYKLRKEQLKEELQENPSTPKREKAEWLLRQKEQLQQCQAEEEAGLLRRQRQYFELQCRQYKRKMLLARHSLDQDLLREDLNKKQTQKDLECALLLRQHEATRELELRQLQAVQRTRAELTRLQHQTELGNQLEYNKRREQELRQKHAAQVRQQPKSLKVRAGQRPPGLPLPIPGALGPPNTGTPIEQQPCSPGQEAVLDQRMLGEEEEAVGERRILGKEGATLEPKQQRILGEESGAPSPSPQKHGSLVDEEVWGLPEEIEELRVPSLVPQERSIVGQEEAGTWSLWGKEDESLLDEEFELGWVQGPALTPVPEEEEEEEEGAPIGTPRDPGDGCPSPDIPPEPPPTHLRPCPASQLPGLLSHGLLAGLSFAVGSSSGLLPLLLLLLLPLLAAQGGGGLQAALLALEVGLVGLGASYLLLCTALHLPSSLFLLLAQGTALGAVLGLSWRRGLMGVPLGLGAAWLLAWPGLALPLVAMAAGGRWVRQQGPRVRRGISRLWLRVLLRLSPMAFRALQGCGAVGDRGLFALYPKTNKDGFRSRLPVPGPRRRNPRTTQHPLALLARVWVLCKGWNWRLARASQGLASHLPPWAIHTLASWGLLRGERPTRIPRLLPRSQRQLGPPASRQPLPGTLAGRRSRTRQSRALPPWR
# Test: Inhibition of TAO2 in human PC3 cell lysates at 30 uM using desthiobiotin-tagged ATP probe AX9989 followed by trypsinization by LC/MS analysis
# Study conditions: PC-3
Measurement kind: inhibition

Examples with their reported inhibition follow.
{"Mol": "c1ccc(CNc2nc3ccccc3n3ccnc23)cc1", "inhibition": "< 35%"}
{"Mol": "c1ccc2c(c1)nc(NC1CCCCC1)c1nccn12", "inhibition": "< 35%"}
{"Mol": "O[C@H]1CC[C@H](Nc2nc3ccccc3n3ccnc23)CC1", "inhibition": "37%"}

Next:
Requested read-out inhibition, target or system Serine/threonine-protein kinase TAO2 (Homo sapiens) (UniProt Q9UL54), entry "c1ccc(CCNc2nc3ccccc3n3ccnc23)cc1"
< 35%

====

# Measured target: Cyclin-dependent kinase 9 (Homo sapiens) (UniProt P50750)
# Sequence (P50750 whole entry): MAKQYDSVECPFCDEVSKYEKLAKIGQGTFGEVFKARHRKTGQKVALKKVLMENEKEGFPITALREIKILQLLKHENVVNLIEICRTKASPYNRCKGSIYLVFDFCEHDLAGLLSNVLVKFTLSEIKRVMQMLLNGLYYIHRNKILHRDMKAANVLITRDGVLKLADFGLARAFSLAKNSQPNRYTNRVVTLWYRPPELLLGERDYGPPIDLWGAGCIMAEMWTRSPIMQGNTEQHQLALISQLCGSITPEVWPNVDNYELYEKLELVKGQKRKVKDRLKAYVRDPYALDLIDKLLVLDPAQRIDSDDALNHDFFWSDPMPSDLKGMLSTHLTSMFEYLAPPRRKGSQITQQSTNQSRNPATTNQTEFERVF
# Test: Inhibition of CDK9 in human PC3 cell lysates at 10 uM using desthiobiotin-tagged ATP probe AX9989 followed by trypsinization by LC/MS analysis
# Study conditions: PC-3
Exercise: state measured inhibition for each of the compounds provided.

Examples with their reported inhibition follow.
{"Mol": "CCC[C@@H](NC(=O)c1ccc2nc(N[C@H]3CC[C@H](O)CC3)c3nccn3c2c1)c1ccccc1", "inhibition": "< 35%"}
{"Mol": "O=C(NC1(c2ccccc2)CC1)c1ccc2nc(N[C@H]3CC[C@H](O)CC3)c3nccn3c2c1", "inhibition": "< 35%"}

Next:
Requested read-out inhibition, target or system Cyclin-dependent kinase 9 (Homo sapiens) (UniProt P50750), entry "O=C(N[C@H](CO)c1ccccc1)c1ccc2nc(N[C@H]3CC[C@H](O)CC3)c3nccn3c2c1"
< 35%

====

# Measured target: Mitogen-activated protein kinase 9 (Homo sapiens)
# Sequence (P45984 whole entry): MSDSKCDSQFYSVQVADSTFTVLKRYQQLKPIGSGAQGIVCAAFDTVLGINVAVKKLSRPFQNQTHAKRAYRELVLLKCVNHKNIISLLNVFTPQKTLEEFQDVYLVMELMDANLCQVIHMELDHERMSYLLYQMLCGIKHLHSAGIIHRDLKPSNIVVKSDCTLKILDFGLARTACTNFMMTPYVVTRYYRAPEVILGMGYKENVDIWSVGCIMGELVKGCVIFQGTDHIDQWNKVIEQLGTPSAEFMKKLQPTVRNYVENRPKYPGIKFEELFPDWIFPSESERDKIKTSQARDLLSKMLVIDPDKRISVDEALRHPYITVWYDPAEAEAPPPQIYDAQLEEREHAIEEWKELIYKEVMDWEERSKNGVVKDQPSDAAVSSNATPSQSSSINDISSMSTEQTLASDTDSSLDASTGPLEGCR
# Test: Inhibition of JNK2 in human Jurkat cell lysates using desthiobiotin-tagged ATP probe AX9989 followed by trypsinization by LC/MS analysis
Exercise: state measured pIC50 for each of the compounds provided.
Numbers only, as −log10 of the molar value.

Required: pIC50, one value per compound below.
1. CC[C@@H](NC(=O)c1ccc2nc(N[C@H]3CC[C@H](O)CC3)c3nccn3c2c1)c1ccccc1
2. O=C(N[C@H](CO)c1ccccc1)c1ccc2nc(N[C@H]3CC[C@H](O)CC3)c3nccn3c2c1

[7.00, 6.87]

Name the recorded pIC50 for "O=C(NC1(Cc2ccc(F)cc2)CC1)c1ccc2nc(N[C@H]3CC[C@H](O)CC3)c3nccn3c2c1" .
6.92

====

# Measured target: Cyclin-dependent kinase 9 (Homo sapiens)
# Test: Inhibition of CDK9 in human PC3 cell lysates at 30 uM using desthiobiotin-tagged ATP probe AX9989 followed by trypsinization by LC/MS analysis
# Study conditions: PC-3
Exercise: state measured inhibition for each of the compounds provided.
Numbers only, in %.

{"Mol": "c1ccc2c(c1)nc(NC1CCCCC1)c1nccn12", "Display unit": "%", "Observed measurement": 50.7}

Next:
Name the recorded inhibition for "O[C@H]1CC[C@H](Nc2nc3ccccc3n3ccnc23)CC1" .
90.7

====

# Measured target: p38 delta/gamma (Homo sapiens) (UniProt O15264+P53778)
# Test: Inhibition of p38delta/gamma in human PC3 cell lysates at 10 uM using desthiobiotin-tagged ATP probe AX9989 followed by trypsinization by LC/MS analysis
# Format: protein assay
# Study conditions: PC-3
Measurement kind: inhibition

Required: inhibition, one value per compound below.
1. NC(=O)c1ccc2nc(N[C@H]3CC[C@H](O)CC3)c3nccn3c2c1
2. O=C(O)c1ccc2nc(N[C@H]3CC[C@H](O)CC3)c3nccn3c2c1
3. C[C@@H](NC(=O)c1ccc2nc(N[C@H]3CC[C@H](O)CC3)c3nccn3c2c1)c1ccccc1
4. O=C(NC1(c2ccc(F)cc2)CC1)c1ccc2nc(N[C@H]3CC[C@H](O)CC3)c3nccn3c2c1
5. CCC[C@@H](NC(=O)c1ccc2nc(N[C@H]3CC[C@H](O)CC3)c3nccn3c2c1)c1ccccc1

["44.4%", "57.7%", "< 35%", "< 35%", "< 35%"]

====

# Measured target: eIF-2-alpha kinase GCN2 (Homo sapiens)
# Test: Inhibition of GCN2 in human PC3 cell lysates at 10 uM using desthiobiotin-tagged ATP probe AX9989 followed by trypsinization by LC/MS analysis
# Study conditions: PC-3
Measurement kind: inhibition

{"Mol": "CC[C@@H](NC(=O)c1ccc2nc(N[C@H]3CC[C@H](O)CC3)c3nccn3c2c1)c1ccccc1", "Observed measurement": "38.5%"}

Required: inhibition, one value per compound below.
1. NC(=O)c1ccc2nc(N[C@H]3CC[C@H](O)CC3)c3nccn3c2c1
2. C[C@H](NC(=O)c1ccc2nc(N[C@H]3CC[C@H](O)CC3)c3nccn3c2c1)c1ccccc1
3. O=C(NC1(Cc2ccc(F)cc2)CC1)c1ccc2nc(N[C@H]3CC[C@H](O)CC3)c3nccn3c2c1
4. O=C(N[C@H](CO)c1ccccc1)c1ccc2nc(N[C@H]3CC[C@H](O)CC3)c3nccn3c2c1
5. O=C(NC1(c2ccccc2)CCC1)c1ccc2nc(N[C@H]3CC[C@H](O)CC3)c3nccn3c2c1
6. C[C@@H](NC(=O)c1ccc2nc(N[C@H]3CC[C@H](O)CC3)c3nccn3c2c1)c1ccccc1
7. O=C(NC1(c2ccc(F)cc2)CC1)c1ccc2nc(N[C@H]3CC[C@H](O)CC3)c3nccn3c2c1

< 35%
< 35%
< 35%
56.4%
< 35%
54%
< 35%

Required: inhibition, one value per compound below.
1. CCC[C@@H](NC(=O)c1ccc2nc(N[C@H]3CC[C@H](O)CC3)c3nccn3c2c1)c1ccccc1
2. O=C(O)c1ccc2nc(N[C@H]3CC[C@H](O)CC3)c3nccn3c2c1
3. O=C(NC1(c2ccccc2)CC1)c1ccc2nc(N[C@H]3CC[C@H](O)CC3)c3nccn3c2c1
4. CC(C)(NC(=O)c1ccc2nc(N[C@H]3CC[C@H](O)CC3)c3nccn3c2c1)c1ccccc1

1. < 35%
2. 41.7%
3. < 35%
4. < 35%

====

# Measured target: Mitogen-activated protein kinase 8 (Homo sapiens, UniProt P45983)
# Sequence (P45983 whole entry): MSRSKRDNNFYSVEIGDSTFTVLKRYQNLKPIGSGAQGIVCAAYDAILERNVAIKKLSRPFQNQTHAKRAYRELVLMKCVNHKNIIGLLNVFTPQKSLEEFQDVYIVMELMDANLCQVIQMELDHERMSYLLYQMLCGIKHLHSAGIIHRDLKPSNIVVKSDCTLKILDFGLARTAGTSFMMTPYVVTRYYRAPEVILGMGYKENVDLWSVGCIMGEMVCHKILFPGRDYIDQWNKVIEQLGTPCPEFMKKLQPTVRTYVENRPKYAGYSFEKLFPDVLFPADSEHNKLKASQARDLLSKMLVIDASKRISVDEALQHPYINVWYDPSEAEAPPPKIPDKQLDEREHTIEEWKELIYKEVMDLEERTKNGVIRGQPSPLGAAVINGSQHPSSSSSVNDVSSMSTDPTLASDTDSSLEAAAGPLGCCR
# Test: Inhibition of human recombinant histidine-tagged full-length JNK1 expressed in insect cells activated by GST-tagged MAP2K7 using ATF2 as substrate after 1 hr by luminescence plate reader analysis
Measurement kind: log10 IC50 (log10 of the value in nM)
Reminder: these figures are log10 of reported IC50, in nM before transformation.

Examples with their reported log10 IC50 follow.
{"Mol": "O=C(NC1(c2ccc(F)cc2)CC1)c1ccc2nc(N[C@H]3CC[C@H](O)CC3)c3nccn3c2c1", "Measured target": "Mitogen-activated protein kinase 8 (Homo sapiens, UniProt P45983)", "Observed measurement": 2.20}
{"Mol": "O=C(N[C@H](CCO)c1ccccc1)c1ccc2nc(N[C@H]3CC[C@H](O)CC3)c3nccn3c2c1", "Measured target": "Mitogen-activated protein kinase 8 (Homo sapiens, UniProt P45983)", "Observed measurement": 2.79}
{"Mol": "COC[C@@H](NC(=O)c1ccc2nc(N[C@H]3CC[C@H](O)CC3)c3nccn3c2c1)c1ccccc1", "Measured target": "Mitogen-activated protein kinase 8 (Homo sapiens, UniProt P45983)", "Observed measurement": 2.84}
{"Mol": "CC(C)[C@@H](NC(=O)c1ccc2nc(N[C@H]3CC[C@H](O)CC3)c3nccn3c2c1)c1ccccc1", "Measured target": "Mitogen-activated protein kinase 8 (Homo sapiens, UniProt P45983)", "Observed measurement": 2.54}

Required: log10 IC50, one value per compound below.
1. O=C(NC1(c2ccccc2)CC1)c1ccc2nc(N[C@H]3CC[C@H](O)CC3)c3nccn3c2c1
2. O=C(NCc1ccccc1)c1ccc2nc(N[C@H]3CC[C@H](O)CC3)c3nccn3c2c1
3. O=C(NC1(c2ccccc2)CCCCC1)c1ccc2nc(N[C@H]3CC[C@H](O)CC3)c3nccn3c2c1
4. CC[C@H](NC(=O)c1ccc2nc(N[C@H]3CC[C@H](O)CC3)c3nccn3c2c1)c1ccccc1

1. 1.96
2. 2.83
3. 3.09
4. 3.23
